Reference source: patent US7223781B2

- Assayed target: COX-1 (Sus scrofa)
- Construct: A platelet suspension obtained from pig's blood is preincubated with the test substance; endogenous in cells; host or cells: platelets from pig's blood
- Sequence (A0A287ANF9 25-600): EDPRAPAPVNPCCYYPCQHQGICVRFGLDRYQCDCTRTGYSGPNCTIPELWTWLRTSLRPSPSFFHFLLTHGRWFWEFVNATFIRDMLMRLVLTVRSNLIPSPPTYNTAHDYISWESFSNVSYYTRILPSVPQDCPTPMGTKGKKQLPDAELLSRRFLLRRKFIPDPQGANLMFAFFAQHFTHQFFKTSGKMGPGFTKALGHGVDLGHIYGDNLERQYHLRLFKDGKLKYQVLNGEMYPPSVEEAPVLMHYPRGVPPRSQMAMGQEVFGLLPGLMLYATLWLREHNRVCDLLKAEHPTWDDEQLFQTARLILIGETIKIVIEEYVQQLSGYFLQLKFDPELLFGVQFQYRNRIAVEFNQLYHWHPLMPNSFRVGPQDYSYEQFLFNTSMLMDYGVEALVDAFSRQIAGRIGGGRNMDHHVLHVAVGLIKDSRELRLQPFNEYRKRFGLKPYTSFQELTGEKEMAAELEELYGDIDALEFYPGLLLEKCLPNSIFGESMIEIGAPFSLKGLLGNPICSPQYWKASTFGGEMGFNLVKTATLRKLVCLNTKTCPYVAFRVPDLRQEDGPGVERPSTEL
- Measurement notes: In-vitro test for COX-1 inhibition: fluorimetric quantification of malonaldehyde (MDA) in A23187-activated pig platelet suspension
- Type: cell-based
- Stated conditions: Table 8, arylsulfonamides; pig platelets; read-out: MDA IC50
pIC50: −log10 of the molar value.
// label = Met if pIC50 is not less than 7, otherwise Not met

| Molecule | Assayed target | Discrete label |
| --- | --- | --- |
| COc1ccc(-c2nc(SCCNS(=O)(=O)c3ccccc3)[nH]c2-c2ccc(OC)cc2)cc1 [Compound T17] | COX-1 (Sus scrofa) | Met |
| COc1ccc(-c2nc(SCCNS(=O)(=O)c3ccc(C(C)(C)C)cc3)[nH]c2-c2ccc(OC)cc2)cc1 [Compound T26] | COX-1 (Sus scrofa) | Not met |
| COc1ccc(-c2nc(SCCNS(=O)(=O)c3ccc(C)cc3)[nH]c2-c2ccc(OC)cc2)cc1 [Compound T24] | COX-1 (Sus scrofa) | Met |
| COc1ccc(-c2nc(SCCNS(=O)(=O)c3ccc(F)cc3)[nH]c2-c2ccc(OC)cc2)cc1 [Compound T20] | COX-1 (Sus scrofa) | Met |

====

Catalogue of IC50 readings, one per entry.
- Assayed target: COX-1 (Sus scrofa)
- Construct: A platelet suspension obtained from pig's blood is preincubated with the test substance; endogenous in cells; host or cells: platelets from pig's blood
- Measurement notes: In-vitro test for COX-1 inhibition: fluorimetric quantification of malonaldehyde (MDA) in A23187-activated pig platelet suspension
- Assay type: cell-based
- Stated conditions: Table 7, arylamides; pig platelets; read-out: MDA IC50

| Smiles structure | Assayed target | IC50 |
| --- | --- | --- |
| COc1ccc(-c2nc(SCCNC(=O)c3cccc(Cl)c3)[nH]c2-c2ccc(OC)cc2)cc1 | COX-1 (Sus scrofa) | 930 nM |
| COc1ccc(-c2nc(SCCNC(=O)c3ccc(C(C)(C)C)cc3)[nH]c2-c2ccc(OC)cc2)cc1 | COX-1 (Sus scrofa) | 82 nM |
| COc1ccc(-c2nc(SCCNC(=O)c3ccccc3Cl)[nH]c2-c2ccc(OC)cc2)cc1 | COX-1 (Sus scrofa) | 62 nM |

====

IC50 for assorted compounds
- Assayed target: COX-1 (Sus scrofa)
- Construct: A platelet suspension obtained from pig's blood is preincubated with the test substance; endogenous in cells; host or cells: platelets from pig's blood
- Measurement notes: In-vitro test for COX-1 inhibition: fluorimetric quantification of malonaldehyde (MDA) in A23187-activated pig platelet suspension
- Format: cell-based
- Stated conditions: Table 1, carbamic acid thioesters; pig platelets; read-out: MDA pIC50 (converted)

| Compound | Display unit | IC50 |
| --- | --- | --- |
| CCN(CC)C(=O)Sc1nc(-c2ccc(Cl)cc2)c(-c2ccccc2)[nH]1 [Compound T104] | nM | 4170 |
| COc1ccc(-c2nc(SC(=O)N3CCOCC3)[nH]c2-c2ccc(OC)cc2)cc1 [Compound T4] | nM | 28.2 |
| CCN(CC)C(=O)Sc1nc(-c2ccc(Cl)cc2)c(-c2ccc(OC)cc2)[nH]1 [Compound T108] | nM | 158 |
| COc1ccc(-c2nc(SC(=O)N(C(C)C)C(C)C)[nH]c2-c2ccc(OC)cc2)cc1 [Compound T3] | nM | 12 |
